// reported GI50 for each item listed
test system: HOP-92; assay: NCI tumour cell line growth inhibition, 48 h
Calls of active or inactive are those of the source. No stated cut-off is given here; in the data, active = GI50 up to about 1.1 µM and inactive = higher.

Worked examples follow.
1. O=C(CCC(=O)OCC1OC(O)(CC2OC(CO)C(O)C(O)C2O)C(O)C1O)OCc1ccccc1 (stereo unspecified); > 100 µM (inactive)
2. COc1ccc2c(c1)C(N)=C(c1ccccc1OC)C2=O; > 100 µM (inactive)
3. COC(=O)CCc1cccnc1/C=N/O; > 100 µM (inactive)
4. O=C(CN1CCCCC1)N1CCc2c([nH]c3ccccc23)C1c1cccnc1 (stereo unspecified); 34.6 µM (inactive)
5. CC1NOC(=O)C1/N=N/c1ccccc1Br (stereo unspecified); 24 µM (inactive)

Field request: GI50 | item: CNC(=O)C(C)C1CCC2(C)C=CC(=O)C(C)=C2C1O (stereo unspecified)
> 100 µM (inactive)

Field request: GI50 | item: O=[N+]([O-])c1cccc(/N=N/c2c(O)c(S(=O)(=O)O)cc3cc(S(=O)(=O)O)ccc23)c1
> 100 µM (inactive)

Field request: GI50 | item: CCOc1ccccc1NC(=O)C1=C(C)NC(C)=C(C(=O)Nc2ccccc2OCC)C1c1cccc([N+](=O)[O-])c1
4.29 µM (inactive)

Field request: GI50 | item: O=C(CC1=NCCN1)c1ccccc1
> 319 µM (inactive)

Field request: GI50 | item: CCOc1cc(C=O)ccc1O
> 100 µM (inactive)

Field request: GI50 | item: CN(C)CCCOC(=O)C(c1ccccc1)C1(O)CCSCC1 (stereo unspecified)
> 100 µM (inactive)

----------
tested on: LOX IMVI; test: NCI tumour cell line growth inhibition, 48 h
Calls of active or inactive are those of the source. Cut-off read from the data, not from the text of the source: active = GI50 up to about 1.1 µM and inactive = higher.
// reported GI50 for each item listed

Worked examples follow.
1. Cc1cccc(C)c1NC(=O)CCC(=O)/N=C(\N)NC#N; > 100 µM (inactive)
2. CN1C(=O)C(=CN(C)c2ccccc2)C(=O)N(C)C1=O; > 100 µM (inactive)
3. CCOC(=O)c1sc2c(c1OC(=O)c1ccc(OC)cc1)c(=O)n(-c1ccccc1)c(=S)n2-c1ccccc1; > 100 µM (inactive)

Field request: GI50 | item: CCc1nc(Cl)nc(Cl)c1Cl
0.0826 µM (active)

Field request: GI50 | item: CCCCNC(=O)OCCN=C1c2ccccc2C(Br)C(Br)c2ccccc21 (stereo unspecified)
20 µM (inactive)

Field request: GI50 | item: CC(=O)NNc1nc(C)c(C(=O)NNC(=O)C(=O)Nc2ccc(C)c(C)c2)s1
16.7 µM (inactive)

Field request: GI50 | item: Nc1c(OCC(=O)O)ccc2cc(S(=O)(=O)O)ccc12
> 100 µM (inactive)

Field request: GI50 | item: O=C1C(Nc2ccccc2)=CC2=NCCc3n[nH]c1c32
13.9 µM (inactive)

Field request: GI50 | item: N#CC1C(=O)NC(=O)C(C#N)C1c1ccc(Cl)c(Cl)c1 (stereo unspecified)
17.1 µM (inactive)

Field request: GI50 | item: CCCCCCCCCCCCOCCOCCOCCOCCOCCOCC(=O)NC(Cc1ccccc1)C(=O)Oc1ccc([N+](=O)[O-])cc1 (stereo unspecified)
29.8 µM (inactive)

Field request: GI50 | item: CC(=O)OC1/C(=C/c2ccc([N+](=O)[O-])cc2)C[C@H]2[C@@H]3CC=C4C[C@@H](OC(C)=O)CC[C@]4(C)[C@H]3CC[C@]12C (stereo partly specified)
> 100 µM (inactive)

----------
test system: ACHN; assay: NCI tumour cell line growth inhibition, 48 h
Active and inactive are the calls of the source. Rule as the data show it: active = GI50 up to about 1.1 µM and inactive = higher.
// classify into True (active), False (inactive)

Example entries and their recorded answers appear below.
1. Cc1c(NC(=O)Nc2c(Cl)cccc2Cl)c(=O)n(-c2ccccc2)n1C; False
2. COC(=O)[C@]12C3=C(O)C(=O)C[C@H]1OC[C@H]2C=CC3; False
3. CC1(O)CC2C(CC1SCCO)C2(C)C (stereo not given); False
4. O=C(CC(=O)Nc1ccccc1Cl)NNC(c1cc(/N=N/c2ccc(Br)cc2)ccc1O)P(O)O (stereo not given); True
5. CN(C)CCCOC(=O)C(c1ccccc1)C1(O)CCSCC1 (stereo not given); False
6. CC(C)N(C(=O)C12C3C4C1C1C2C3C41I)C(C)C (stereo not given); False
7. COC(=O)C1=C(O)c2cc3c(cc2[C@H](c2cc(OC)c(OC)c(OC)c2)C1)OCO3; False
8. c1ccc2c(c1)nc1n2CSC1; False
9. O=P1(N(CCCl)CCCl)Oc2ccc(Cl)cc2C(C(Cl)(Cl)Cl)c2cc(Cl)ccc2O1 (stereo not given); False

Proceed to the following item.
Give the logged outcome of this assay for the following compound: CC(=O)OC1/C(=C/c2ccc([N+](=O)[O-])cc2)C[C@H]2[C@@H]3CC=C4C[C@@H](OC(C)=O)CC[C@]4(C)[C@H]3CC[C@]12C (stereo not given in full)
False

----------
tested on: HOP-92; assay: NCI tumour cell line growth inhibition, 48 h
Activity calls are given as the source filed them. Cut-off read from the data, not from the text of the source: active = GI50 up to about 1.1 µM and inactive = higher.
readoutKind: GI50

1. Cc1c(NC(=S)N/N=C\C(=N/NC(=S)Nc2c(C)n(C)n(-c3ccccc3)c2=O)c2ccccc2)c(=O)n(-c2ccccc2)n1C; > 100 µM (inactive)

Lookup: GI50 / HOP-92 / COC(=O)[C@]12C3=C(O)C(=O)C[C@H]1OC[C@H]2C=CC3
> 100 µM (inactive)

Lookup: GI50 / HOP-92 / O=c1oc2c(ccc3c(O)cccc32)c2c1CCCC2
16.6 µM (inactive)

Lookup: GI50 / HOP-92 / CC(C)N(C(=O)C12C3C4C1C1C2C3C41I)C(C)C (stereo not drawn)
88.9 µM (inactive)

----------
system: CAKI-1; assay: NCI tumour cell line growth inhibition, 48 h
Calls of active or inactive are those of the source. No stated cut-off is given here; in the data, active = GI50 up to about 1.1 µM and inactive = higher.
readoutKind: GI50

Worked examples follow.
1. [N-]=[N+]=NC1(c2ccccc2)C(=O)c2cccc3c4ccccc4n(c23)C1=O (centres undefined); > 100 µM (inactive)
2. CCOC(=O)c1[nH]c2ccccc2c1C(=O)C[C@H](NC(=O)C(F)(F)F)C(=O)OC; > 100 µM (inactive)
3. CC(=O)NC1C(OCc2ccccc2)OC(COC(=O)CCCCCCCCCCNC(=O)CCNc2ccc([N+](=O)[O-])c3[nH]c4ccc(O)cc4c(=O)c23)C(O)C1OC(C)C(=O)N[C@H](C(=O)N[C@H](CCC(=O)O)C(N)=O)C(C)C (some centres undefined); > 100 µM (inactive)
4. CO[C@@H](c1ccccc1)[C@H](O)[C@](O)(c1ccccc1)P(=O)(OC)OC; > 100 µM (inactive)
5. CC1(Cl)CC(C)(/C=C/Cl)C(Cl)CC1Cl (centres undefined); 16.1 µM (inactive)
6. FC(F)(F)c1ccc2c(c1)nc(Cc1ccc(Cl)c(Cl)c1)n2CC1CCCN2CCCCC12 (centres undefined); 29.7 µM (inactive)
7. O=C(CCC(=O)OCC1OC(O)(CC2OC(CO)C(O)C(O)C2O)C(O)C1O)OCc1ccccc1 (centres undefined); > 100 µM (inactive)
8. CSCC[C@H]1C(=O)N=C(N)N1C(=O)OCc1ccccc1; 20 µM (inactive)

Query molecule follows.
Field request: GI50 | item: CC1=CCCC2C(C=O)(C1)CC(C)C2(CO)CC/C(=C/CO)CO (centres undefined)
57.3 µM (inactive)

----------
// reported GI50 for each item listed
tested on: NCI-H23; test: NCI tumour cell line growth inhibition, 48 h
Activity calls are given as the source filed them. No stated cut-off is given here; in the data, active = GI50 up to about 1.1 µM and inactive = higher.

1. CC12CCC([C@H](C(O)C3CCCCC3)C1=O)C2(C)C (stereo partly specified); > 100 µM (inactive)
2. CSCC[C@H]1C(=O)N=C(N)N1C(=O)OCc1ccccc1; 17.1 µM (inactive)
3. C=C1C(=O)OC2C1CC[C@H](C)C1(O)C(O)CC(=O)[C@@]21C (stereo partly specified); 18.7 µM (inactive)
4. CC1CCCC(C(O)CC2CC(=O)N(c3ccccc3)C(=O)C2)C1=O (stereo unspecified); > 100 µM (inactive)
5. Oc1ccccc1/C=N/N1C(=S)N(C23CC4CC(CC(C4)C2)C3)C(=N\c2ccccc2)/C1=N/c1ccccc1; > 100 µM (inactive)

Lookup: GI50 / NCI-H23 / COc1cc2c(c(OC)c1OC)-c1ccc(OC)c(=O)cc1C(NC(=O)COc1ccccc1)CC2 (stereo unspecified)
< 0.01 µM (active)

Lookup: GI50 / NCI-H23 / C/C(=C\Cc1ccc(F)cc1)CCCCCC/C(C)=C/Cc1ccc(F)cc1
10.8 µM (inactive)

----------
test system: HL-60; test: NCI tumour cell line growth inhibition, 48 h
Activity calls are given as the source filed them. Rule as the data show it: active = GI50 up to about 1.1 µM and inactive = higher.
readoutKind: GI50

Worked examples follow.
1. Cc1nc(C)c(C(=O)NNC(=O)Cc2ccccc2)cc1C(=O)NNC(=O)Cc1ccccc1; > 100 µM (inactive)
2. COC(=O)C1(OC(=O)Sc2ccccc2)CCN(C)CC1; 5.96 µM (inactive)
3. O=C(CCC(=O)OCC1OC(O)(CC2OC(CO)C(O)C(O)C2O)C(O)C1O)OCc1ccccc1 (stereo unspecified); > 100 µM (inactive)
4. OCC1COc2cc(Cl)c(Cl)cc2O1 (stereo unspecified); > 10 µM (inactive)

Field request: GI50 | item: COc1cc(CC2CC(c3ccc4c(c3)OCO4)OC2=O)cc(OC)c1OC (stereo unspecified)
> 100 µM (inactive)

Field request: GI50 | item: O=c1sc(Nc2ccc3ccccc3c2Cl)nc2ccccc12
26.5 µM (inactive)
